Target: [35S]-TBPS binding in rat brain cortical membranes
Test: Steroid inhibition of [35S]-TBPS binding, rat brain cortical membranes
Details: 3 nM [35S]-TBPS, in the presence of 5 μM GABA, read-out: 35S-TBPS Radioligand Displacement (IC50)
reported.endpoint: IC50

- COC[C@]12CC[C@@H](O)C[C@@H]1CC[C@H]1[C@@H]3CC[C@H](C(=O)Cn4nccn4)[C@@]3(C)CC[C@@H]12: 50 to 100 nM
- COC[C@]12CC[C@@](C)(O)C[C@@H]1CC[C@H]1[C@@H]3CC[C@H](C(=O)Cn4nnc5cc(F)ccc54)[C@@]3(C)CC[C@@H]12: 10 to 50 nM
- COC[C@]12CC[C@@](C)(O)C[C@@H]1CC[C@H]1[C@@H]3CC[C@H](C(=O)Cn4ncc5ccncc54)[C@@]3(C)CC[C@@H]12: 50 to 100 nM
- COC[C@]12CC[C@@](C)(O)C[C@H]1CC[C@H]1[C@@H]3CC[C@H](C(=O)Cn4nnc5c(F)cccc54)[C@@]3(C)CC[C@@H]12: 10 to 50 nM
- COC[C@]12CC[C@@](C)(O)C[C@@H]1CC[C@H]1[C@@H]3CC[C@H](C(=O)Cn4nc5ccc(OC)cc5n4)[C@@]3(C)CC[C@@H]12: 10 to 50 nM
- COC[C@]12CC[C@@](C)(O)C[C@@H]1CC[C@H]1[C@@H]3CC[C@H](C(=O)Cn4nc5ccc(F)c(F)c5n4)[C@@]3(C)CC[C@@H]12: < 10 nM

Recorded values, source patent US12071453B2.
